System: SNB-19 CNS
Protocol Notes: NCI-60 one-dose screen, 48 h (100 = growth as untreated, 0 = no growth, -100 = all killed)
Test Settings: 10 µM unless noted
This is part of a sample that, as a whole, favours compounds with a hit. Of some 83,000 tested, about 20% had one in any assay.
Kindly supply the reported growth values for the records listed here.
Answers are plain numbers, in %.

Molecule	growth [%]
COc1ccc2c(c1)C(C)Cc1c(Cl)nc(C)nc1N2C (stereo not given)	24.7
COc1ccc2c(c1)c(-c1noc(C(=O)c3cn(C)c4ncc(Br)cc34)n1)cn2C	78.7
O=C(Oc1ccc(Cl)cc1[N+](=O)[O-])Oc1ccc(Cl)cc1[N+](=O)[O-]	115
CCOC(=O)c1c[nH]n2c(=S)ncnc12	96.1

Enquiry: Reported growth for CCOC(=O)c1nn(C2CCCCO2)c2ccc(NC(=O)CSc3nc4ccccc4c(=O)[nH]3)cc12 (stereo not given) : what is it?
Return: 76.3

---

Tested on: BT-549 breast
Protocol Notes: NCI-60 one-dose screen, 48 h
Test Settings: 10 µM unless noted
Compounds without any hit were thinned out: in the full panel of roughly 83,000, 20% have a hit. Calls of active or inactive are those of the source. Rule for the calls: active = growth percent below 10; inactive = the rest.
Would you mind answering with one of these outcomes? yes (active), no (inactive)

Below are worked cases with known answers.
Compound	Tested Target	Discrete Label
COc1ccc(NC(=S)NNc2ccc(-c3ccc(OC)c(OC)c3)nn2)cc1	BT-549 breast	no
O=c1cc(-c2ccccc2)oc2c(O)c(O)ccc12	BT-549 breast	no
CC(C)C1=NOC(=O)C1=Cc1cn(-c2cccnc2)nc1-c1ccccc1	BT-549 breast	no

Enquiry: GET /call?item= COc1cccc(-c2[nH]c(=S)ncc2C(=O)c2ccccc2)c1 returns the recorded outcome of this test.
Return: no

Enquiry: What outcome does the record of this test show for CC/C=C(\C)C(CCC)(CN=O)C(=O)OCC (stereo not drawn) ?
Return: no

Enquiry: Which outcome was assigned to C[C@@H]1C[C@H]2C(=O)O[C@@H](C)[C@H](NC(=O)[C@H](Cc3cc(F)cc(F)c3)NC(=O)Nc3ccc(Cl)cc3F)C(=O)N3C[C@H](O)C[C@H]3C(=O)N3CCN(C)C[C@H]3C(=O)N[C@@H](C)C(=O)N2C1 in this test?
Return: no

Enquiry: Given CC(C)=CCC[C@](C)(O)[C@H]1CC[C@]2(C)[C@@H]1CC[C@@H]1[C@@]3(C)CC[C@H](OC(=O)CCC(=O)O)C(C)(C)[C@@H]3CC[C@]12C , state the outcome it received in this test.
Return: no

Enquiry: Please indicate how the test categorized C[C@H]1[C@H](C)CC[C@]2(C(=O)O)CC[C@]3(C)C(=CC[C@@H]4[C@@]5(C)C/C(=C/c6ccco6)C(=O)C(C)(C)[C@@H]5CC[C@]43C)[C@H]12 .
Return: yes

Enquiry: Answer briefly: the call reported for COc1ccc(OC)c([N+](=O)[O-])c1C(=O)CNC(C)=O in this assay.
Return: no

Enquiry: Hi, do you know how COc1cc(C)cc2oc3oc(=N)c(C(=O)c4ccccc4)cc3c(=O)c12 came out in this test?
Return: no

Enquiry: # outcome recorded in this test, key = COc1cc(/C=C/C(=O)/C=C/c2ccc(-n3ccnc3C)cc2)ccc1O
Return: no

---

System: SNB-75 CNS
Protocol Notes: NCI-60 one-dose screen, 48 h (100 = growth as untreated, 0 = no growth, -100 = all killed)
Test Settings: 10 µM unless noted
The panel holds about 83,000 compounds, 20% with a hit somewhere; the sample as a whole holds those more often. The source made the active and inactive calls. The calls were made as follows: active = growth percent below 10; inactive = the rest.
Property Name: growth

Compound	Property Name	Observed Value
CCN1CCN(CC(=O)Nc2nc3ccc(NCc4ccc(Cl)cc4)cc3s2)CC1	growth	103% (inactive)

# batch size: 6; output growth per entry
1. O=C(C[n+]1ccn(CC(OCc2ccc(Cl)cc2Cl)c2ccc(Cl)cc2Cl)c1)c1ccc(F)cc1 (stereo not given)
2. O=C(Nc1ccc(C(=O)/C=C/c2ccc(N3CCOCC3)cc2)cc1)Nc1ccc([N+](=O)[O-])cc1
3. O=C(N/N=C/c1c(Cl)cccc1Cl)c1cccc(Nc2ccnc(C(F)(F)F)c2)c1
4. O=C(O)CC1CCCCC1c1ccccc1 (stereo not given)
5. Fc1ccc(NC(=S)c2ccccc2)cc1
6. COc1cc2c(O)n(CCCN3CCOCC3)c3c4cnc5cccc(c(=O)c3c2cc1OC)c54

Return:
1. -99% (active)
2. 94.7% (inactive)
3. 93.7% (inactive)
4. 106% (inactive)
5. 99.7% (inactive)
6. 38.9% (inactive)

---

System: UACC-257 melanoma
Protocol Notes: NCI-60 one-dose screen, 48 h
Test Settings: 10 µM unless noted
The panel holds about 83,000 compounds, 20% with a hit somewhere; the sample as a whole holds those more often. Activity calls are given as the source filed them. Rule for the calls: active = growth percent below 10; inactive = the rest.
Output constraint: value belongs to 1 (yes) for active, 0 (no) for inactive

Molecule	Discrete Label
COc1cc2c(=O)[nH]c3cc([N+](=O)[O-])ccc3c2cc1[N+](=O)[O-]	0 (no)
CC1(C)C(=O)/C(=C\c2cccnc2)C[C@]2(C)[C@H]3CC[C@@H]4[C@H]5[C@H](C(=O)/C=C/c6cccnc6)CC[C@]5(C(=O)O)CC[C@@]4(C)[C@]3(C)CC[C@@H]12	1 (yes)
CCOc1cccc2c(NC(C)CCCN(CC)CC)c(C)cnc12 (stereo not drawn)	0 (no)
COc1cc(-c2cc(-c3ccc(Nc4ncnc5cc(Cl)ccc45)cc3)nc(N3CCCCC3)n2)cc(OC)c1OC	0 (no)

Enquiry: Which outcome was assigned to Fc1cc2[nH]ncc2c2c3c(c(-c4cn[nH]c4C(F)(F)F)nc12)C1CCC3C1 (stereo not drawn) in this test?
Return: 1 (yes)

Enquiry: Could you kindly confirm the outcome this assay logged for COc1ccc(C=C2c3ccccc3-c3ccccc32)cc1 ?
Return: 0 (no)

Enquiry: Given C=C(C)C1CCC2(C(=O)O)CCC3(C)C(CCC4C5(C)CCC(OC(=O)NCc6ccccc6)C(C)(C)C5CCC43C)C12 (stereo not drawn) , state the outcome it received in this test.
Return: 0 (no)

Enquiry: Which result was noted for this molecule in the test: O=S(=O)(NCCNc1nccc(-c2c(-c3cccc(F)c3)nc3occn23)n1)c1ccc(C(F)(F)F)cc1
Return: 0 (no)

---

Tested on: HOP-92 NSCLC
Protocol Notes: NCI-60 one-dose screen, 48 h
Test Settings: 10 µM unless noted
The panel holds about 83,000 compounds, 20% with a hit somewhere; the sample as a whole holds those more often. Active and inactive are the calls of the source. The calls were made as follows: active = growth percent below 10; inactive = the rest.
Choose one outcome from this list and give only that: active, inactive

Examples with answers:
Compound	Discrete Label
CCOC(=O)c1cnc2ccc(Br)cc2c1Nc1cccc(S(N)(=O)=O)c1	inactive
O=C(CCCCCCSc1nc(-c2ccc(Cl)cc2)cc(-c2ccc(Cl)cc2)n1)NO	inactive
CC[C@]1(O)CC2CN(CCc3c([nH]c4ccccc34)[C@@](C(=O)OC)(c3cc4c(cc3OC)N(C=O)[C@H]3[C@@](O)(C(=O)OC)[C@H](OC(C)=O)[C@]5(CC)C=CCN6CC[C@]43[C@@H]65)C2)C1 (stereo partly specified)	inactive
CC[C@@H]1NC(=O)[C@@H]2CCCCN2C(=O)[C@@H]2CCCN2C(=O)[C@@H](NC(=O)[C@H](Cc2cc(F)cc(F)c2)NC(=O)Nc2ccc(C3CC3)cc2F)[C@H](C)OC(=O)[C@@H]2C[C@@H](C)CN2C1=O	active
O=C(OCc1ccc2c(Cl)cc(Cl)c(O)c2n1)N1CCN(C(=O)c2cc3cc(F)ccc3[nH]2)CC1	inactive

Here is another compound to look at.
Enquiry: Each compound tested received a call. Report the one for C[C@H]1[C@H](C)CC[C@]2(COC(=O)CCC(=O)O)CC[C@]3(C)C(=CC[C@@H]4[C@@]5(C)CCCNC(C)(C)[C@@H]5CC[C@]43C)[C@H]12 .
Return: active

---

Test system: HS 578T breast
Protocol Notes: NCI-60 one-dose screen, 48 h (100 = growth as untreated, 0 = no growth, -100 = all killed)
Test Settings: 10 µM unless noted
About 83,000 compounds went through this panel and 20% of them were active in at least one assay; those are over-represented in the sample as a whole. The source made the active and inactive calls. The calls were made as follows: active = growth percent below 10; inactive = the rest.
Would you mind telling me the reported growth of each entry?

For orientation, consider the following solved cases.
Entry Smiles	growth
O=c1[nH]c(CN2CCN(c3cccc(Cl)c3)CC2)nc2cc(Cl)ccc12	99% (inactive)
O=c1[nH]c2cc(Cl)c(Cl)cc2n2cc3ncccc3c12	99.2% (inactive)
O=C1COCCN1c1ccc(NCc2cn(Cc3ccccc3)c3ccccc23)cc1	89.4% (inactive)
c1coc2occoc=2o1	104% (inactive)
O=C1CN(Cc2ccc(C(=O)NO)cc2)C(=O)[C@@H](Cc2ccccc2)N1	101% (inactive)
COc1ccc(-c2nc3ccccn3c2/C=C/C(=O)c2cc(OC)c(OC)c(OC)c2)cc1OC	6.05% (active)

Quick one: give me growth for each item below, same order please.
1. O=S(=O)(/N=c1/n(-c2ccccc2)nc2n1CCN2C1=NCCN1)c1ccc(-c2ccccc2)cc1
2. O=C1COCCN1c1ccc(NCc2cn(Cc3ccc(F)cc3)c3ccccc23)cc1
3. O=C1COCCN1c1ccc(NCc2cn(Cc3cccc4ccccc34)c3ccccc23)cc1
4. COc1ccc(C(=O)c2nccc3cc(OC)c(OC)cc23)cc1OC

Return:
["93.4% (inactive)", "72% (inactive)", "84.3% (inactive)", "98% (inactive)"]
